Data credit: the supplement of paper PMC12764529

test: folding stability dG unfold from chymotrypsin proteolysis; higher = more stable
Use 0.6 kcal/mol as the dividing line for folding stability dG unfold, with the line itself on the Condition met side and lower values as Condition not met.

* SAGGSAGGSAGEKTFVIDEVKITSVERLPDGSLRVTIEVRLPNGETLTLTLTLPPGAVLESAGGSAGGSAGG [r11_429_TrROS_Hall] | Condition met
* SKTIMFQFDSIEEIKDFIKEAIDDGDPDQKIRIEWYPPGGRRQEHEIESPEDIIDFLENGPYWIRVEIEPSA [r9_589_TrROS] | Condition met
* SAGGSAGGSKETLTIKIKVEVKDENGEKKEVTVTLTIKAETKEEAEALLKELKEKYPNVKVEPSAGGSAGGS [r12_1043_TrROS_Hall] | Condition met
* SAGGSAGGSAGGSKPDPEIEQERNPEKGYRTIKIEFPDKPRTIMVKNLPPDDPALRDAFSAGGSAGGSAGGS [r4_328_TrROS] | Condition not met
* SAKPVAEGPIRIPNGFEIEITQIKPDKENGEIVIPIEIEMWRPERDPEDPNQPKWEPQEMNIAFTIPLDSAG [r14_888_TrROS] | Condition not met
* SAGGSAGGSGPNIKVSSSTSTYTLPNGKKVTVKTIVIETENSKYLIVVLTDPNGKSIVFIKPLSAGGSAGGS [r12_213_TrMRF] | Condition met
